All figures here come from ChEMBL document CHEMBL1795235.

# System: Staphylococcus aureus
# experiment: Antibacterial activity against methicillin-resistant Staphylococcus aureus OM481 after 24 hrs by microdilution method
# Type: functional
# measurement_conditions: OM481, 24 h
Recorded MIC, one value per entry.

{"compound_structure_string": "Cc1ccc(CCC(=O)OC[C@H]2O[C@@H](Oc3c(-c4ccc(O)c(O)c4)oc4cc(O)cc(O)c4c3=O)[C@H](OC(=O)CCc3ccc(C)cc3)[C@@H](O)[C@H]2O)cc1", "measurement_target": "Staphylococcus aureus", "MIC / µg/mL": 0.25}
{"compound_structure_string": "CC(=O)OC[C@H]1O[C@@H](Oc2c(-c3ccc(O)c(O)c3)oc3cc(O)cc(O)c3c2=O)[C@H](OC(C)=O)[C@@H](OC(C)=O)[C@H]1OC(C)=O", "measurement_target": "Staphylococcus aureus", "MIC / µg/mL": 32}
{"compound_structure_string": "CCOc1ccc(C(=O)OC[C@H]2O[C@@H](Oc3c(-c4ccc(O)c(O)c4)oc4cc(O)cc(O)c4c3=O)[C@H](OC(=O)c3ccc(OCC)cc3)[C@@H](O)[C@H]2O)cc1", "measurement_target": "Staphylococcus aureus", "MIC / µg/mL": 4}
{"compound_structure_string": "O=C(Cc1ccc(F)cc1)O[C@H]1[C@H](Oc2c(-c3ccc(O)c(O)c3)oc3cc(O)cc(O)c3c2=O)O[C@H](CO)[C@@H](O)[C@@H]1OC(=O)Cc1ccc(F)cc1", "measurement_target": "Staphylococcus aureus", "MIC / µg/mL": 2}
{"compound_structure_string": "O=C(CCCCc1ccc(F)cc1)OC[C@H]1O[C@@H](Oc2c(-c3ccc(O)c(O)c3)oc3cc(O)cc(O)c3c2=O)[C@H](OC(=O)CCCCc2ccc(F)cc2)[C@@H](O)[C@H]1O", "measurement_target": "Staphylococcus aureus", "MIC / µg/mL": 4}

###

# Test system: Enterococcus
# experiment: Antibacterial activity against vancomycin resistant Enterococcus NCTC 12201 after 24 hrs by microdilution method
# Format: functional
# measurement_conditions: NCTC 12201, 24 h
Recorded MIC, one value per entry.
measured_quantity: MIC (µg/mL)

{"compound_structure_string": "CCOc1ccc(C(=O)OC[C@H]2O[C@@H](Oc3c(-c4ccc(O)c(O)c4)oc4cc(O)cc(O)c4c3=O)[C@H](OC(=O)c3ccc(OCC)cc3)[C@@H](O)[C@H]2O)cc1", "measured_quantity": "MIC", "bound_sign": "=", "measured_value": 8}
{"compound_structure_string": "CCOc1ccc(C(=O)O[C@H]2[C@H](Oc3c(-c4ccc(O)c(O)c4)oc4cc(O)cc(O)c4c3=O)O[C@H](CO)[C@@H](O)[C@@H]2OC(=O)c2ccc(OCC)cc2)cc1", "measured_quantity": "MIC", "bound_sign": "=", "measured_value": 4}
{"compound_structure_string": "Cc1ccc(CCC(=O)OC[C@H]2O[C@@H](Oc3c(-c4ccc(O)c(O)c4)oc4cc(O)cc(O)c4c3=O)[C@H](O)[C@@H](O)[C@H]2O)cc1", "measured_quantity": "MIC", "bound_sign": "=", "measured_value": 32}
{"compound_structure_string": "Cc1ccc(CCC(=O)O[C@H]2[C@H](Oc3c(-c4ccc(O)c(O)c4)oc4cc(O)cc(O)c4c3=O)O[C@H](CO)[C@@H](O)[C@@H]2OC(=O)CCc2ccc(C)cc2)cc1", "measured_quantity": "MIC", "bound_sign": "=", "measured_value": 4}
{"compound_structure_string": "O=c1c(O[C@@H]2O[C@H](CO)[C@H](O)[C@H](O)[C@H]2O)c(-c2ccc(O)c(O)c2)oc2cc(O[C@@H]3O[C@H](CO)[C@H](O)[C@H](O)[C@H]3O)cc(O)c12", "measured_quantity": "MIC", "bound_sign": ">", "measured_value": 128}
{"compound_structure_string": "Cc1ccc(CCC(=O)Oc2cc(O)c3c(=O)c(OC(=O)CCc4ccc(C)cc4)c(-c4ccc(O)c(O)c4)oc3c2)cc1", "measured_quantity": "MIC", "bound_sign": "=", "measured_value": 64}
